Biological target: PDE11A (Homo sapiens)
Sequence (Q9HCR9 whole entry, species assumed): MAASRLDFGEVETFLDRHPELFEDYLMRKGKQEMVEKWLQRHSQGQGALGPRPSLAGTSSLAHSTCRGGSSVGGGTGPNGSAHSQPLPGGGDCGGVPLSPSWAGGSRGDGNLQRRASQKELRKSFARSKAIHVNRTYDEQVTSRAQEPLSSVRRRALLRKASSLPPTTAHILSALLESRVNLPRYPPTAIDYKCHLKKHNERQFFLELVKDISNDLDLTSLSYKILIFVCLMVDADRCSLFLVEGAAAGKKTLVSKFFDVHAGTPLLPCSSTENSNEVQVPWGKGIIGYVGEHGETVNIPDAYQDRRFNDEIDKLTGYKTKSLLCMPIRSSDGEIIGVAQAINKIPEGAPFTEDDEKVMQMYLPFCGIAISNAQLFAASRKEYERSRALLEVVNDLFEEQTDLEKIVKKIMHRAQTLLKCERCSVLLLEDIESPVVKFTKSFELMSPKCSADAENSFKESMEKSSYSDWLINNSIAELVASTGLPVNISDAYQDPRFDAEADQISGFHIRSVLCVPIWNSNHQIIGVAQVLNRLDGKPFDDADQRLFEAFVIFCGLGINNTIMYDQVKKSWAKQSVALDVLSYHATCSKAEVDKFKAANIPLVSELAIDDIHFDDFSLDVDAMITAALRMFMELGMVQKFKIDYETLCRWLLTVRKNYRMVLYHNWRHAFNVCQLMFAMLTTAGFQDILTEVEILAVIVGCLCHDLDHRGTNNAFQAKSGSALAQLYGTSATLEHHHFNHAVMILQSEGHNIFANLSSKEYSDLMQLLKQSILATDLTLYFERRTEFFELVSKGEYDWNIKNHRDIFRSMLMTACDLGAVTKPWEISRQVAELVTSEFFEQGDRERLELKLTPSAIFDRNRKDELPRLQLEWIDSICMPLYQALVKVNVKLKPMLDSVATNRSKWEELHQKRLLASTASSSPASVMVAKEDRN
Test: In vitro PDE selectivity assay, PDE11A
Assay type: biochemical
Details: Table 4a in vitro selectivity; read-out: IC50 PDE type 11A
Protocol: Rat recombinant PDE10A (rPDE10A2) was expressed in Sf9 cells using a recombinant rPDE10A baculovirus construct. Cells were harvested after 48 h of infection and the rPDE10A protein was purified by metal chelate chromatography on Ni-sepharose 6FF. […] The reaction was incubated for 60 min. at RT. […] After sedimentation of the beads during 30 min. the radioactivity was measured in a Perkin Elmer Topcount scintillation counter and results were expressed as cpm. […]
Endpoint: IC50

>>> df
                               input_smiles  endpoint  reported
0  Cc1nc2c(N3CCOCC3)nccn2c1-c1ccc(C2CCOCC2)nc1      IC50   66.1 µM

Please find the next compound below.
Which IC50 reading was recorded for the compound "COCCc1ncc(-c2c(C)nc3c(N4CCOCC4)nccn23)cn1" ?
> 10 µM
